# tgt: T1, GST–PPARα fusion protein (purified ligand binding domain of PPARα)
# T1 sequence (Q07869 whole entry, species assumed, looked up): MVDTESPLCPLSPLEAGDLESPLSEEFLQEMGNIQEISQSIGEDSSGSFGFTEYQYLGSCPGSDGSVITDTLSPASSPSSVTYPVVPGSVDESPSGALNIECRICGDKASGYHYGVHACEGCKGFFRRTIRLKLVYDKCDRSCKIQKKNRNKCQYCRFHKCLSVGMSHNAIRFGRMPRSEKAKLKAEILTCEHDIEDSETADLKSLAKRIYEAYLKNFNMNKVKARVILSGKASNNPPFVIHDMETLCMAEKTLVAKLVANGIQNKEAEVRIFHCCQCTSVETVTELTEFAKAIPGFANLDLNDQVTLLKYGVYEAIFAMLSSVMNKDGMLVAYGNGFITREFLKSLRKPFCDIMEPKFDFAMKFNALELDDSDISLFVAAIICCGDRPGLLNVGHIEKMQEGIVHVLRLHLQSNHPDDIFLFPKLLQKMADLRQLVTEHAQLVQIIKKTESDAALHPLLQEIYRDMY
# assayExplanation: FRET or BRET; homogeneous TR-FRET as a1, 12-concentration dose–response of muraglitazar; the EC50 is of the compound; delta ratio in % of the reference compound at 10 μM (RO4899100 for PPARα, edaglitazone for PPARγ)
Where no end group is shown, it is not given here. The star is where a group is joined. Biotin = O=C1N[C@H]2[C@H](CS[C@H]2CCCCC(=O)*)N1; Ahx = NCCCCCC(=O)O
reportedEndpoint: delta ratio with muraglitazar (%)

Solved entries:
• {Biotin-Ahx}-AVQEHASTNMGLEAIIRKALMGKYD (silencing mediator of retinoid and thyroid hormone receptors (SMRT), ID2, residues 2331-2355; also called SMRT2; source: synthetic peptide (Jerini or Biosynthan, Berlin)) = -28
• {Biotin-Ahx}-PKKENNALLRYLLDRDDPSDV (source: synthetic peptide (Jerini or Biosynthan, Berlin)) [RAC3_M3 cofactor peptide (receptor-associated co-activator 3, motif 3)] = 35
• {Biotin-Ahx}-ADPASNLGLEDIIRKALMGSF (nuclear receptor co-repressor (NCoR), ID2; also called NCoR2; NcoR2; source: synthetic peptide (Jerini or Biosynthan, Berlin)) [NCoR ID2 cofactor peptide (nuclear receptor co-repressor, interaction domain 2)] = -50

a = {Biotin-Ahx}-LDASKKKESKDHQLLRYLLDKDEKD (source: synthetic peptide (Jerini or Biosynthan, Berlin)) [SRC1_M3 cofactor peptide (steroid receptor co-activator 1, motif 3)]
b = {Biotin-Ahx}-STHGTSLKEKHKILHRLLQDS [TIF2_M2 cofactor peptide (transcriptional intermediary factor 2, motif 2)]
c = {Biotin-Ahx}-DSKYSQTSHKLVQLLTTTAEQQLRH (source: synthetic peptide (Jerini or Biosynthan, Berlin)) [SRC1_M1 cofactor peptide (steroid receptor co-activator 1, motif 1)]
Rank order required: delta ratio with muraglitazar, descending. Sort the labels as requested; that list is your answer. c, b, a
(c: 74%, b: 33%, a: 23%)
